Biological target: PPARγ LBD C285Y (Homo sapiens, UniProt P37231, C313Y)
Construct: PPARγ LBD (residues 195–477 in PPARγ1 numbering) was cloned into the expression vector pET-28b(+)
Sequence (P37231 195-477 isoform P37231-2 C285Y): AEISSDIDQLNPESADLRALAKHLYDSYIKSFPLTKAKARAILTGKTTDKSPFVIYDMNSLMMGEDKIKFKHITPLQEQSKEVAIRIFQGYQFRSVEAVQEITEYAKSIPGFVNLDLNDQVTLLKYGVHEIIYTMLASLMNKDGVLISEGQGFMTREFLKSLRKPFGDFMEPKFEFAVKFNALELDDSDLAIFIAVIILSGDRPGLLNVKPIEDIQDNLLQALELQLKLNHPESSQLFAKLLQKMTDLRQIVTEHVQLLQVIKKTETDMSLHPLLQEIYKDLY
Assay: ITC binding of endogenous ligands to PPARγ LBD C285Y
Conditions: PBS pH 7.2, 25 °C, ligand 0.9 mM
Entries and their Kd values follow.
Supply the numeric figure in µM, leaving out any unit text.

Record request: Kd value, item CCCCC[C@H](O)/C=C/C=C\CCCCCCCC(=O)O [13S-HODE, 13S-hydroxy-9Z,11E-octadecadienoic acid]
42.7

Record request: Kd value, item CCCCCC=CC=C1C(=O)C=C[C@@H]1CC=CCCCC(=O)O [15d-PGJ2, 15-deoxy-∆^12,14-prostaglandin J2]
162

These data points were gathered from paper PMC7761077.
